TEST TARGET: Tubulin (Bos taurus, UniProt Q6B856+Q862L2+Q862F3)
TEST PROTOCOL: Inhibitory activity against tubulin polymerization
Type: protein assay
Entries annotated with measured IC50
Answer format: numeric, µM implied, no suffix.

STRUCTURE SMILES STRING	TEST TARGET	UNIT TEXT	IC50
COc1ccc(/C=C(/C#N)c2ccccc2)cc1N	Tubulin (Bos taurus, UniProt Q6B856+Q862L2+Q862F3)	µM	8

Consider the additional compound presented here.
Exam item: Answer with the recorded IC50 for the compound listed here: "COc1ccc(/C=C(/C#N)c2cc(OC)c(OC)c(OC)c2)cc1N"
Marked response: 10
